Data provenance: PubChem BioAssay (NCI)

# Tested on: RXF 393 renal
# Method Description: NCI-60 one-dose screen, 48 h
# Condition Notes: 10 µM
This is part of a sample that, as a whole, favours compounds with a hit. Of some 83,000 tested, about 20% had one in any assay. Activity calls are given as the source filed them. How the source made its calls: active means growth percent below 10; inactive means the rest.
Outcome codes: active, inactive

[
  {
    "Compound": "Cn1cc(-c2nnc(N)nc2-c2c[nH]c3ccc(F)cc23)c2cc(Br)cnc21",
    "Label Value": "inactive"
  },
  {
    "Compound": "COc1ccc(C2c3sc4ccc(C)cc4c3Oc3nc(N)nc(N)c32)cc1 (stereo unspecified)",
    "Label Value": "inactive"
  },
  {
    "Compound": "Cc1cc(N=C2NC(=O)S/C2=C\\c2ccc(F)cc2)n[nH]1",
    "Label Value": "active"
  },
  {
    "Compound": "Cc1cc(N=C2NC(=O)/C(=C/c3cc(C(C)(C)C)c(O)c(C(C)(C)C)c3)S2)n[nH]1",
    "Label Value": "active"
  },
  {
    "Compound": "COc1ccc(C(=O)COc2ccc(NC(=O)Nc3ccc(Cl)c(C(F)(F)F)c3)cc2)cc1",
    "Label Value": "active"
  },
  {
    "Compound": "O=C(Nc1ccc(Oc2ncnc3scc(Nc4n[nH]c(=S)s4)c23)cc1)C1(C(=O)Nc2cccc(C(F)(F)F)c2)CC1",
    "Label Value": "inactive"
  },
  {
    "Compound": "Cc1ccc(-c2nc(C#N)c(S(=O)(=O)N3CCN(S(C)(=O)=O)CC3)o2)cc1",
    "Label Value": "active"
  },
  {
    "Compound": "COc1cc(C2CC(c3ccc(Oc4ccc(Cl)cc4)cc3)=NN2c2nc(-c3ccc(Cl)cc3)c(C#N)c(N3CCOCC3)n2)cc(OC)c1OC (stereo unspecified)",
    "Label Value": "inactive"
  },
  {
    "Compound": "O=C(CN1CCN(c2ncnc3c2cnn3-c2ccccc2)CC1)Nc1ccc(Cl)cc1",
    "Label Value": "inactive"
  },
  {
    "Compound": "CC1(C)CC(=O)C2=C(C1)N(Cc1ccc(C(=O)O)cc1)C1=C(C(=O)CC(C)(C)C1)C2c1ccc(Cl)cc1",
    "Label Value": "inactive"
  },
  {
    "Compound": "COc1ccc(OC)c(-n2cc(C#N)c(N)c2C(=O)c2ccc(Cl)cc2Cl)c1",
    "Label Value": "inactive"
  },
  {
    "Compound": "O=C(c1ccc(Cl)cc1)C(c1c[nH]c2ccccc12)c1c[nH]c2ccccc12",
    "Label Value": "active"
  },
  {
    "Compound": "CCn1c(SCC(=O)Nc2ccc(-c3nc4ccccc4[nH]3)cc2)nc2ccccc2c1=O",
    "Label Value": "active"
  },
  {
    "Compound": "COc1cc(C2CC(c3ccccc3)=Nc3c(N)nc(N)nc3N2)ccc1Oc1nc(NCCO)nc(N2CCOCC2)n1 (stereo unspecified)",
    "Label Value": "inactive"
  },
  {
    "Compound": "Cc1ccc2c(c1)C(=O)/C(=C/c1ccc([N+](=O)[O-])cc1)S2",
    "Label Value": "inactive"
  },
  {
    "Compound": "O=C(Nc1ccc(OCC(=O)c2ccc(Cl)cc2)cc1)Nc1ccc(Cl)c(C(F)(F)F)c1",
    "Label Value": "active"
  }
]

----------
# System: BT-549 breast
# Method Description: NCI-60 one-dose screen, 48 h
# Condition Notes: 10 µM
Compounds without any hit were thinned out: in the full panel of roughly 83,000, 20% have a hit. Activity calls are given as the source filed them. The calls were made as follows: active = growth percent below 10; inactive = the rest.
Outcome codes: active, inactive

[
  {
    "Compound": "Cn1cc(-c2nc(N)nnc2-c2c[nH]c3ccccc23)c2cc(Br)cnc21",
    "Label Value": "active"
  },
  {
    "Compound": "C#C[C@]1(O)CC[C@H]2[C@@H]3CC=C4c5sc(Nc6ccc(N(C)C)cc6)nc5CC[C@]4(C)[C@H]3CC[C@@]21C",
    "Label Value": "active"
  },
  {
    "Compound": "O=C(c1ccc(F)cc1)C(c1c[nH]c2ccccc12)c1c[nH]c2ccccc12",
    "Label Value": "inactive"
  },
  {
    "Compound": "Cc1ccc(COc2ccc(NC(=O)Nc3ccc(Cl)c(C(F)(F)F)c3)cc2)cc1",
    "Label Value": "inactive"
  },
  {
    "Compound": "COC(=O)CNC(=O)COc1c(OC)c(OC)cc2oc(-c3cccc(C(=O)Nc4ccc(Cl)cc4)c3)cc(=O)c12",
    "Label Value": "active"
  },
  {
    "Compound": "Fc1ccc(-c2csc(Nc3cccc(Nc4nc(-c5ccc(F)cc5)cs4)c3)n2)cc1",
    "Label Value": "inactive"
  },
  {
    "Compound": "CCOC(=O)C1=C(N)N(c2ccc(C)cc2)C2=C(C(=O)CC(C)(C)C2)C1c1ccccc1Br (configuration not stated)",
    "Label Value": "inactive"
  },
  {
    "Compound": "C#CCOc1cc(N(CC)CC)ccc1C(C(=O)NC(C)(C)C)N(C(=O)C1CCc2cc(F)ccc2O1)c1ccc(F)cc1F (configuration not stated)",
    "Label Value": "inactive"
  },
  {
    "Compound": "COc1cc(C2CC(c3ccccc3)=Nc3c(N)nc(N)nc3N2)ccc1Oc1nc(NCCO)nc(N2CCOCC2)n1 (configuration not stated)",
    "Label Value": "inactive"
  },
  {
    "Compound": "Cn1cc(-c2nnc(N)nc2-c2c[nH]c3ccccc23)c2cc(Br)cnc21",
    "Label Value": "inactive"
  },
  {
    "Compound": "O=C(CN1CCN(c2ncnc3c2cnn3-c2ccccc2)CC1)Nc1ccc(Cl)cc1",
    "Label Value": "inactive"
  },
  {
    "Compound": "COc1ccc(C(=O)COc2ccc(NC(=O)Nc3ccccc3)cc2)cc1",
    "Label Value": "inactive"
  },
  {
    "Compound": "C#C[C@]1(O)CC[C@H]2[C@@H]3CC=C4c5sc(Nc6cc(C)cc(C)n6)nc5CC[C@]4(C)[C@H]3CC[C@@]21C",
    "Label Value": "active"
  },
  {
    "Compound": "Nc1nnc(-c2c[nH]c3ncc(Br)cc23)c(-c2c[nH]c3ccc(Br)cc23)n1",
    "Label Value": "active"
  },
  {
    "Compound": "Cn1cc(-c2cc3nc(-c4c[nH]c5ccccc45)cc(N)n3n2)c2cc(Cl)ccc21",
    "Label Value": "active"
  },
  {
    "Compound": "COc1ccc(NCc2cn(-c3ccc(C(=O)O)cc3)nc2-c2ccc(F)cc2)cc1C(F)(F)F",
    "Label Value": "inactive"
  },
  {
    "Compound": "O=C(Nc1ccc(OCc2ccc(Cl)cc2)cc1)Nc1ccc(Cl)c(C(F)(F)F)c1",
    "Label Value": "active"
  },
  {
    "Compound": "COc1ccc(OC)c(-n2cc(C#N)c(N)c2C(=O)c2ccc(Cl)cc2Cl)c1",
    "Label Value": "inactive"
  },
  {
    "Compound": "O=C(c1ccccc1)c1ccc2nc(-c3ccccc3Br)[nH]c2c1",
    "Label Value": "active"
  },
  {
    "Compound": "COc1ccc(C2c3sc4ccc(C)cc4c3Oc3nc(N)nc(N)c32)cc1 (configuration not stated)",
    "Label Value": "inactive"
  },
  {
    "Compound": "COc1cc2oc(-c3cccc(C(=O)Nc4ccc(Cl)cc4)c3)cc(=O)c2c(OCCNC(=O)[C@@H](N)CO)c1OC",
    "Label Value": "inactive"
  },
  {
    "Compound": "O=C(c1ccc(Cl)cc1)C(c1c[nH]c2ccccc12)c1c[nH]c2ccccc12",
    "Label Value": "active"
  },
  {
    "Compound": "COc1ccc(-n2c(SCC(=O)NNS(=O)(=O)c3ccccc3)nc3ccc(Cl)cc3c2=O)cc1",
    "Label Value": "inactive"
  },
  {
    "Compound": "O=C(Nc1ccc(OCc2ccc(F)cc2)cc1)Nc1ccc(Cl)c(C(F)(F)F)c1",
    "Label Value": "active"
  },
  {
    "Compound": "Cc1ccc2sc3c(c2c1)Oc1nc[nH]c(=O)c1C3c1cccc(F)c1 (configuration not stated)",
    "Label Value": "inactive"
  },
  {
    "Compound": "CCOC(=O)c1ccc(NC(=O)CSC(CC(=O)c2sc(Nc3ccccn3)nc2C)c2ccccc2F)cc1 (configuration not stated)",
    "Label Value": "active"
  },
  {
    "Compound": "O=C1S/C(=C\\c2ccc([N+](=O)[O-])cc2)C(=O)N1CCN1CCCCC1",
    "Label Value": "inactive"
  },
  {
    "Compound": "CC1[C@H]2[C@H](C[C@H]3[C@@H]4CC=C5c6sc(Nc7cccc(Cl)n7)nc6CC[C@]5(C)[C@H]4CC[C@@]32C)O[C@]12CC[C@@H](C)CO2 (some centres not stated)",
    "Label Value": "inactive"
  },
  {
    "Compound": "O=[N+]([O-])c1cccc(-c2nnc3c(/C=C/c4ccccc4O)nc4ccccc4n23)c1",
    "Label Value": "inactive"
  },
  {
    "Compound": "Cc1cc(N=C2NC(=O)/C(=C/c3cc(C(C)(C)C)c(O)c(C(C)(C)C)c3)S2)n[nH]1",
    "Label Value": "active"
  },
  {
    "Compound": "Cn1cc(-c2cc(N)n3nc(-c4cn(C)c5ccccc45)cc3n2)c2cc(F)ccc21",
    "Label Value": "active"
  },
  {
    "Compound": "Cc1ccc2c(c1)C(=O)/C(=C/c1ccc([N+](=O)[O-])cc1)S2",
    "Label Value": "inactive"
  },
  {
    "Compound": "COc1ccc(Cn2cc(C#N)c(N)c2C(C)=O)c(OC)c1",
    "Label Value": "inactive"
  },
  {
    "Compound": "O=C(CC(=O)Nc1ccc(Oc2ncnc3scc(Nc4n[nH]c(=S)s4)c23)cc1)Nc1ccc(Cl)cc1",
    "Label Value": "inactive"
  },
  {
    "Compound": "COc1ccccc1-n1cc(C#N)c(N)c1C(=O)c1ccc(Cl)cc1Cl",
    "Label Value": "inactive"
  },
  {
    "Compound": "O=C(CSc1nc2ccccc2c(=O)n1-c1ccc(Cl)cc1)Nc1ccc(-c2nc3ccc([N+](=O)[O-])cc3[nH]2)cc1",
    "Label Value": "active"
  },
  {
    "Compound": "Cc1ccc2c(c1)C(=O)/C(=C/c1c[nH]c3ccccc13)S2",
    "Label Value": "inactive"
  }
]
